PROCEDURE_TEXT: Oral bioavailability in dog
Type: ADME, organism-based, Canis lupus familiaris
RUN_PARAMETERS: in vivo
QUANTITY_MEASURED: bioavailability (%)

I. CCc1nnc2n1CCN(C(=O)C[C@H](N)Cc1ccc(F)c(F)c1)C2.Cl
II. Cl.N[C@@H](CC(=O)N1CCn2c(nnc2C(F)(F)F)C1)Cc1cc(F)c(F)cc1F
IN: Given the listed records, identify the one among I and II with higher bioavailability. Reply briefly: the label of your chosen item.
OUT: II

----------
PROCEDURE_TEXT: Plasma clearance was measured in rat
Type: ADME, organism-based
RUN_PARAMETERS: read-out: Clp
QUANTITY_MEASURED: clearance (mL/min/kg)

Known results for compounds:
> print(dat)
                    structure.smiles.string  value.observed
1  CCc1nnc2n1CCN(C(=O)C[C@H](N)Cc1ccc(F)c(F)c1)C2.Cl              45
2  Cl.N[C@@H](CC(=O)N1CCn2c(nnc2C(F)(F)F)C1)Cc1cc(F)ccc1F              43
3  Cl.N[C@@H](CC(=O)N1CCn2c(nnc2C(F)(F)F)C1)Cc1ccc(F)c(F)c1              51

I. Cl.N[C@@H](CC(=O)N1CCn2cnnc2C1)Cc1cc(F)c(F)cc1F
II. Cl.N[C@@H](CC(=O)N1CCn2c(nnc2C(F)(F)C(F)(F)F)C1)Cc1cc(F)ccc1F
III. Cl.N[C@@H](CC(=O)N1CCn2c(nnc2C(F)(F)C(F)(F)F)C1)Cc1cc(F)c(F)cc1F
IN: Endpoint returns the given compounds ordered by ascending clearance. Present the labels in the sequence the task asks for.
OUT: I, III, II
(I: 40 mL/min/kg, III: 58 mL/min/kg, II: 109 mL/min/kg)

----------
PROCEDURE_TEXT: Plasma clearance was measured in monkey
Assay type: ADME, organism-based
RUN_PARAMETERS: cercopithecidae, read-out: Clp
QUANTITY_MEASURED: clearance (mL/min/kg)

> print(dat)
                    structure.smiles.string  quantity.unit  value.observed
1  CCc1nnc2n1CCN(C(=O)C[C@H](N)Cc1ccc(F)c(F)c1)C2.Cl      mL/min/kg              26
2  Cl.N[C@@H](CC(=O)N1CCn2c(nnc2C(F)(F)F)C1)Cc1cc(F)c(F)cc1F      mL/min/kg              28

----------
PROCEDURE_TEXT: Oral bioavailability in rat
Assay type: ADME, organism-based
RUN_PARAMETERS: in vivo
QUANTITY_MEASURED: bioavailability (%)

> print(dat)
                    structure.smiles.string  value.observed
1  Cl.N[C@@H](CC(=O)N1CCn2c(nnc2C(F)(F)F)C1)Cc1ccc(F)c(F)c1              44

I. Cl.N[C@@H](CC(=O)N1CCn2c(nnc2C(F)(F)C(F)(F)F)C1)Cc1cc(F)ccc1F
II. Cl.N[C@@H](CC(=O)N1CCn2c(nnc2C(F)(F)F)C1)Cc1cc(F)ccc1F
III. Cl.N[C@@H](CC(=O)N1CCn2cnnc2C1)Cc1cc(F)c(F)cc1F
IV. CCc1nnc2n1CCN(C(=O)C[C@H](N)Cc1ccc(F)c(F)c1)C2.Cl
IN: # sort list by recorded bioavailability, greatest to least Present the labels in the sequence the task asks for.
OUT: II, III, IV, I
(II: 51%, III: 3%, IV: 2%, I: 1%)
